assay: Toxicokinetics of APi2568 in monkey plasma (UHPLC-MS/MS); format: in vivo, cynomolgus monkey; settings: male, cynomolgus monkey, plasma, im, 0.5 mg/dose; read-out: Tmax
Where no end group is shown, it is not given here.
Outcome measure: Tmax (h)
Give bare numbers, in h.

Query: # get_value(readout='Tmax', item= KLLSLIKGVIVHRLEGVEGPSLGAISLAPKAQIKESLRAEL [MVF-PD-1(92-110)] )
Reply: 1

* * *

experiment: Toxicokinetics of APi2568 in monkey plasma (UHPLC-MS/MS); format: in vivo, cynomolgus monkey; conditions: male, cynomolgus monkey, plasma, im, 5 mg/dose; read-out: Tmax
Where no end group is shown, it is not given here.
Outcome measure: Tmax (h)
Give bare numbers, in h.

Query: # get_value(readout='Tmax', item= KLLSLIKGVIVHRLEGVEGPSLGAISLAPKAQIKESLRAEL [MVF-PD-1(92-110)] )
Reply: 2
